Entries annotated with measured IC50
study-system: ITK (Homo sapiens)
Construct: purchased Signalchem I13-11G-10
test-name: Inhibitory activity against ITK, ADP-Glo Kinase system (Promega)
Assay type: biochemical
condition-label: 1mM ATP; read-out: ITK IC50(nM) 1mM ATP

Recorded results for 2 compounds are shown here.
INSERT INTO measurements (compound, experimental_readout, value_observed) VALUES
  ('C=CC(=O)N1C[C@@H](F)[C@H](Oc2nc(Nc3ncc(C)s3)cc3c2ccn3CC(C)C)C1 [Example 106]', 'IC50', '≤ 20 nM'),
  ('C=CC(=O)N1CC[C@H](Oc2nc(Nc3cc(C)ncn3)cc3c2ccn3C(C)C)C1 [Example 101]', 'IC50', '20 to 100 nM');

Identify measured IC50 corresponding to C=CC(=O)N1CC(C)(Oc2nc(Nc3ncc(C)s3)cc3c2ccn3CCOC)C1 [Example 168]
> 500 nM

* * *

study-system: BTK (Homo sapiens, UniProt Q06187)
Construct: purchased Signalchem B10-10H
Sequence (Q06187 whole entry): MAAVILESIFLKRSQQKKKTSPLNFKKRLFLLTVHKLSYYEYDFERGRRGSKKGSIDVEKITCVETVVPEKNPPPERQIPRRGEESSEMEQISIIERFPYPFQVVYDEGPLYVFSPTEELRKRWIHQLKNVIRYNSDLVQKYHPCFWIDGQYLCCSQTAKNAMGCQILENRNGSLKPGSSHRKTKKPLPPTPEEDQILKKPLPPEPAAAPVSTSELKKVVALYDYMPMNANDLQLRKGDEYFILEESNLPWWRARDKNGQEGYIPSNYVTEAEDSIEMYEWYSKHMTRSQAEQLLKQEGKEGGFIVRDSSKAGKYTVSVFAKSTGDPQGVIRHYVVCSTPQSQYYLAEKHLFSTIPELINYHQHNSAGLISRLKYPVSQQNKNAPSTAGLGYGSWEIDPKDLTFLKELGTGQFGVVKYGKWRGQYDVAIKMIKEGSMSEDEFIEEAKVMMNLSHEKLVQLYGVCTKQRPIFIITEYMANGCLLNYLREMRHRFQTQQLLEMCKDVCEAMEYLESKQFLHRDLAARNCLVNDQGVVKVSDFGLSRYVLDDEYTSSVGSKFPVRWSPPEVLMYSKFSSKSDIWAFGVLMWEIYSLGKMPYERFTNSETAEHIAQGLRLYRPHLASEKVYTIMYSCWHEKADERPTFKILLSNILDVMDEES
test-name: Inhibitory activity against BTK, ADP-Glo Kinase system (Promega)
Format: biochemical
condition-label: 1mM ATP; read-out: BTK IC50(nM) 1mM ATP
experimental-readout: IC50

INSERT INTO assay_data (compound, experimental_readout, value_observed) VALUES
  ('C=CC(=O)N1CC(Oc2nc(Nc3ncc(C)s3)cc3c2ccn3CC2CC2)C1', 'IC50', '≤ 20 nM'),
  ('C=CC(=O)N1C[C@@H](F)[C@@H](Oc2nc(Nc3ncc(C)s3)cc3c2ccn3CC(C)C)C1', 'IC50', '> 500 nM'),
  ('C=CC(=O)N1CCC[C@H](Oc2nc(Nc3ncc(C)s3)cc3c2ccn3CC2CCCC2)C1', 'IC50', '≤ 20 nM');

Okay, now this compound:
Give IC50 for "C=CC(=O)N1CC[C@H](Oc2nc(Nc3ncc(C)s3)cc3c2ccn3[C@@H](C)CC)C1"
≤ 20 nM

* * *

study-system: ITK (Homo sapiens)
Construct: purchased Signalchem I13-11G-10
Sequence (Q08881 1-620): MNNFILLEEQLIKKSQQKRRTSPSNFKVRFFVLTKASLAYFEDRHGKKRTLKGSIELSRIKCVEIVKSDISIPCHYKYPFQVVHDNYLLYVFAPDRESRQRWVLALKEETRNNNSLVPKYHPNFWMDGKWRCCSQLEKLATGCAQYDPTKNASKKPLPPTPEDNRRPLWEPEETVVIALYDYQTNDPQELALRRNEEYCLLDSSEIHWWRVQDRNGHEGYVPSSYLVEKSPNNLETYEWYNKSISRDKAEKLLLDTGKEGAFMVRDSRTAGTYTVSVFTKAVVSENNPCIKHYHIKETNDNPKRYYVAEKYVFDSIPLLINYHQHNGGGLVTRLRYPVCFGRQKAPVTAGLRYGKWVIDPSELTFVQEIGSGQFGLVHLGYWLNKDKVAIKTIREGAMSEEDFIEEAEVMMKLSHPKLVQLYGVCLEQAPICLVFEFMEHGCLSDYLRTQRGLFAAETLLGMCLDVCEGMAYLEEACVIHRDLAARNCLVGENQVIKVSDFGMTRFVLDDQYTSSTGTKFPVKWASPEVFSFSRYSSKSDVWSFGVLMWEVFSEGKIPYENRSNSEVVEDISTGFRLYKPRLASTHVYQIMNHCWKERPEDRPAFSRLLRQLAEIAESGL
test-name: Inhibitory activity against ITK, ADP-Glo Kinase system (Promega)
Type: biochemical
condition-label: 1mM ATP; read-out: ITK IC50(nM) 1mM ATP
Below is a list of entries, each paired with its recorded IC50 value.

INSERT INTO assay_data (molecule, study_system, experimental_readout, value_observed) VALUES
  ('C=CC(=O)N1CC[C@H](Oc2nc(Nc3cc(C(F)(F)F)ncn3)cc3c2ccn3C(C)C)C1 [Example 95]', 'ITK (Homo sapiens)', 'IC50', '100 to 500 nM'),
  ('C=CC(=O)N1C2C=C(c3nc(Nc4ncc(C)s4)cc4c3ccn4C)CC1CC2 (stereo not drawn) [Example 28]', 'ITK (Homo sapiens)', 'IC50', '≤ 20 nM');

// moving on: another record for IC50
Assign IC50 to the following record: C=CC(=O)N1C[C@H](Oc2nc(Nc3ncc(C)s3)cc3c2ccn3CC(C)C)[C@@H](F)C1 [Example 134]
> 500 nM

* * *

study-system: ITK (Homo sapiens)
Construct: purchased Signalchem I13-11G-10
Sequence (Q08881 1-620): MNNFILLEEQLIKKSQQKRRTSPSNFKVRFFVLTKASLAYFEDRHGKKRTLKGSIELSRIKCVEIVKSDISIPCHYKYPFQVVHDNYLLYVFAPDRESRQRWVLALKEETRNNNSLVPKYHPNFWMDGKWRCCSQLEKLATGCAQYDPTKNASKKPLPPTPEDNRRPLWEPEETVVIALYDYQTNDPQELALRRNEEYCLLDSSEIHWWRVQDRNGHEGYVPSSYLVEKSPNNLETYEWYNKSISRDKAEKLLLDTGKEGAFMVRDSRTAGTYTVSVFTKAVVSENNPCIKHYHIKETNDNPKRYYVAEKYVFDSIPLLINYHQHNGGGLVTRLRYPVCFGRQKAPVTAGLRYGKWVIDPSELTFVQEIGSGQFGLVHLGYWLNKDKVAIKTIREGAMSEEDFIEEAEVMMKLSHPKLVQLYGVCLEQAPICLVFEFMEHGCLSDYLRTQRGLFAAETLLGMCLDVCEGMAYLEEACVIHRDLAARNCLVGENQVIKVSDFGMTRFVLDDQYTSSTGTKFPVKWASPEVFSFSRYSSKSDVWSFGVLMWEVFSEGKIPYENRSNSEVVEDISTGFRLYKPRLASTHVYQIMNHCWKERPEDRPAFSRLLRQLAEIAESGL
test-name: Inhibitory activity against ITK, ADP-Glo Kinase system (Promega)
Format: biochemical
condition-label: 1mM ATP; read-out: ITK IC50(nM) 1mM ATP
experimental-readout: IC50

INSERT INTO assay_data (compound, experimental_readout, value_observed) VALUES
  ('C=CC(=O)N1C2C=C(c3nc(Nc4ncc(C)s4)cc4c3ccn4CC(F)(F)F)CC1CC2 (stereo not shown) [Example 35]', 'IC50', '≤ 20 nM'),
  ('C=CC(=O)N1C[C@@H](F)[C@H](Oc2nc(Nc3ncc(C)s3)cc3c2ccn3C2CCCC2)C1 [Example 110]', 'IC50', '≤ 20 nM');

For the compound C=CC(=O)N1CC[C@H](Oc2nc(Nc3cc(F)ccc3C)cc3c2ccn3C)C1 [Example 138] , report IC50.
> 500 nM

Quote IC50 reported for C=CC(=O)N1CC(C)(Oc2nc(Nc3ncc(C)s3)cc3c2ccn3CCC)C1 [Example 176] please.
≤ 20 nM

Using the record for C=CC(=O)N1CCC[C@H](COc2nc(Nc3ncc(C)s3)cc3c2ccn3CC(C)C)C1 [Example 215] , state its measured IC50.
100 to 500 nM

* * *

Examples of compounds with documented IC50 follow.
study-system: ITK (Homo sapiens, UniProt Q08881)
Construct: purchased Signalchem I13-11G-10
test-name: Inhibitory activity against ITK, ADP-Glo Kinase system (Promega)
Type: biochemical
condition-label: Km ATP (ITK: 25uM); read-out: ITK IC50(nM) Km ATP

Observe how each entry below is paired with its result.
INSERT INTO assay_data (compound, study_system, experimental_readout, value_observed) VALUES
  ('C=CC(=O)N1CC=C(c2nc(Nc3ncc(C)s3)cc3c2ccn3[C@H](C)CC)CC1 [Example 14]', 'ITK (Homo sapiens, UniProt Q08881)', 'IC50', '≤ 20 nM'),
  ('C=CC(=O)N1CC=C(c2nc(Nc3nc(C)cs3)cc3c2ccn3C(C)C)CC1 [Example 42]', 'ITK (Homo sapiens, UniProt Q08881)', 'IC50', '> 500 nM');

Give recorded IC50. C=CC(=O)N1CC(C)C(Oc2nc(Nc3ncc(C)s3)cc3c2ccn3CC(C)C)C1 (stereo not drawn) [Example 116]
≤ 20 nM

Complete the entry with IC50 for C=CC(=O)N1CC[C@H](Oc2nc(Nc3ncc(C)s3)cc3c2ccn3CC(C)CC)C1 (stereo partly drawn) [Example 123]
≤ 20 nM

Supply IC50 value. Item: C=CC(=O)N1CC=C(c2nc(Nc3ncc(C)s3)cc3c2ccn3CC(F)(F)F)CC1 [Example 19]
≤ 20 nM

Using the record for C=CC(=O)N1C2C=C(c3nc(Nc4ncc(C)s4)cc4c3ccn4CC(C)C)CC1CC2 (stereo not drawn) [Example 32] , state its measured IC50.
≤ 20 nM

State its IC50 for this compound: C=CC(=O)N1C[C@@H](F)[C@H](Oc2nc(Nc3ncc(C)s3)cc3c2ccn3CCC(C)C)C1 [Example 115]
≤ 20 nM

Item C=CC(=O)Nc1cccc(-c2nc(Nc3ncc(C)s3)cc3c2ccn3C)c1 [Example 50] : provide IC50
20 to 100 nM

Answer with the recorded IC50 for the compound listed here: C=CC(=O)N1CC(Oc2nc(Nc3ncc(C)s3)cc3c2ccn3C(C)C)C1 [Example 80]
≤ 20 nM
